Dose.FC.CTG (log 2 fold change) overview
# System: ISC-enriched organoids
# protocolNotes: Primary screen, 384-well 2.5-D organoid differentiation (ENR+CD, 6 days, Target Selective Inhibitor Library, vs whole-plate median): ATP (CellTiter-Glo 3D, CTG)
# condition: Dose 2.00 uM; primary screen, vs plate median
Write the number on its own, no unit after it.

Example results:
molecule: Cc1nn(-c2ccccc2)c(C)c1/C=N/N1CCN(Cc2ccccc2)CC1 [SANT-1]
testedTarget: ISC-enriched organoids
Dose.FC.CTG (log 2 fold change): 0.137

molecule: CC(C)(C)c1cnc(CSc2cnc(NC(=O)C3CCNCC3)s2)o1 [SNS-032 (BMS-387032)]
testedTarget: ISC-enriched organoids
Dose.FC.CTG (log 2 fold change): −0.915

molecule: COc1cc(OC)c(/C=C/S(=O)(=O)Cc2ccc(OC)c(NCC(=O)O)c2)c(OC)c1 [Rigosertib (ON-01910)]
testedTarget: ISC-enriched organoids
Dose.FC.CTG (log 2 fold change): −1.668

Let us examine a further case.
Incoming: Please give the measured Dose.FC.CTG (log 2 fold change) for this molecule: CCn1c(N)c(C(=O)NC)c(=O)c2ccc(C#C[C@@](C)(O)COC)nc21 [SAR131675]
Outgoing: 0.071

====

# Tested on: ISC-enriched organoids
# protocolNotes: Primary screen, 384-well 2.5-D organoid differentiation (ENR+CD, 6 days): carbachol-induced lysozyme secretion (LYZ.S)
# Type: cell-based, murine
# condition: Dose 2.00 uM; primary screen, FC vs plate median
propertyMeasured: Dose.FC.LYZ.S (log 2 fold change)
Write the answer as a number in log 2 fold change, unit excluded.

Would you please look over these solved cases?
molecule: OCCn1cc(-c2cnc3nnn(Cc4ccc5ncccc5c4)c3n2)cn1
testedTarget: ISC-enriched organoids
recordedNumber: 0.049

molecule: O=c1cc(-c2cccc3c2Sc2ccccc2S3)oc(N2CCOCC2)c1
testedTarget: ISC-enriched organoids
recordedNumber: 0.161

molecule: CCCCc1nc(Cl)c(CO)n1Cc1ccc(-c2ccccc2-c2nnn[n-]2)cc1.[K+]
testedTarget: ISC-enriched organoids
recordedNumber: −0.080

molecule: CCn1c(-c2nonc2N)nc2c(C#CC(C)(C)O)ncc(OC[C@H]3CCCNC3)c21
testedTarget: ISC-enriched organoids
recordedNumber: 0.124

molecule: CNC(=O)[C@H](Cc1c[nH]c2ccccc12)NC(=O)[C@@H](CC(=O)NO)CC(C)C
testedTarget: ISC-enriched organoids
recordedNumber: 0.024

Incoming: Would you mind telling me what Dose.FC.LYZ.S value was observed for Fc1cc(F)c2c(c1)[C@H]1C=CC[C@H]1C(c1cccnc1)N2 (mixture of isomers) [Golgicide A] ?
Outgoing: 0.076

Incoming: For Cc1c(C(=O)Nc2ccc(N3C[C@@H](C)O[C@@H](C)C3)nc2)cccc1-c1ccc(OC(F)(F)F)cc1 , what is its reported Dose.FC.LYZ.S?
Outgoing: 0.002

Incoming: Can you share its Dose.FC.LYZ.S? I mean this molecule: O=C(c1ccc(Nc2nccc(-c3cc4ccccc4s3)n2)cc1)N1CCC(N2CCCC2)CC1
Outgoing: −0.142

Incoming: Record request: Dose.FC.LYZ.S value, item CC[C@@H]1/C=C/C=C/C[C@H](C)[C@H](O)[C@](C)(O)C(=O)[C@H](C)[C@@H](O)[C@H](C)C(=O)[C@H](C)[C@@H](O)[C@H](C)/C=C/C(=O)O[C@H]2[C@@H](C)[C@@H](CC1)O[C@@]1(CC[C@@H](C)[C@@H](C[C@H](C)O)O1)[C@@H]2C
Outgoing: −0.269

Incoming: For COc1cc(-n2c(=S)[nH]c3ccccc3c2=O)c(Cl)cc1Cl , what is its reported Dose.FC.LYZ.S?
Outgoing: −0.048

Incoming: Please give the measured Dose.FC.LYZ.S for this molecule: O=C(c1cn(Cc2cncn2Cc2ccc(Br)cc2)cc1-c1cccc2ccccc12)N1CCOCC1
Outgoing: −0.238

Incoming: What value of measured Dose.FC.LYZ.S is listed for O=[N+]([O-])C=Cc1ccc2c(c1)OCO2 ?
Outgoing: 0.019

Incoming: Give the measured Dose.FC.LYZ.S of CC(C)(C)Cn1c(N)nc2ccc(-c3[nH]c(C(C)(C)C)nc3-c3ccc(F)cc3)nc21 .
Outgoing: −0.130
